Data provenance: patent US20240150375A1

Give measured IC50 for each item. Keep answers brief.
target: EGFR^L858R (Homo sapiens, UniProt P00533, L858R); assay: HTRF KinEASE-TK in vitro kinase assay, EGFR L858R (L); details: EGFR L858R kinase inhibition
Sequence (P00533 25-1210 L858R): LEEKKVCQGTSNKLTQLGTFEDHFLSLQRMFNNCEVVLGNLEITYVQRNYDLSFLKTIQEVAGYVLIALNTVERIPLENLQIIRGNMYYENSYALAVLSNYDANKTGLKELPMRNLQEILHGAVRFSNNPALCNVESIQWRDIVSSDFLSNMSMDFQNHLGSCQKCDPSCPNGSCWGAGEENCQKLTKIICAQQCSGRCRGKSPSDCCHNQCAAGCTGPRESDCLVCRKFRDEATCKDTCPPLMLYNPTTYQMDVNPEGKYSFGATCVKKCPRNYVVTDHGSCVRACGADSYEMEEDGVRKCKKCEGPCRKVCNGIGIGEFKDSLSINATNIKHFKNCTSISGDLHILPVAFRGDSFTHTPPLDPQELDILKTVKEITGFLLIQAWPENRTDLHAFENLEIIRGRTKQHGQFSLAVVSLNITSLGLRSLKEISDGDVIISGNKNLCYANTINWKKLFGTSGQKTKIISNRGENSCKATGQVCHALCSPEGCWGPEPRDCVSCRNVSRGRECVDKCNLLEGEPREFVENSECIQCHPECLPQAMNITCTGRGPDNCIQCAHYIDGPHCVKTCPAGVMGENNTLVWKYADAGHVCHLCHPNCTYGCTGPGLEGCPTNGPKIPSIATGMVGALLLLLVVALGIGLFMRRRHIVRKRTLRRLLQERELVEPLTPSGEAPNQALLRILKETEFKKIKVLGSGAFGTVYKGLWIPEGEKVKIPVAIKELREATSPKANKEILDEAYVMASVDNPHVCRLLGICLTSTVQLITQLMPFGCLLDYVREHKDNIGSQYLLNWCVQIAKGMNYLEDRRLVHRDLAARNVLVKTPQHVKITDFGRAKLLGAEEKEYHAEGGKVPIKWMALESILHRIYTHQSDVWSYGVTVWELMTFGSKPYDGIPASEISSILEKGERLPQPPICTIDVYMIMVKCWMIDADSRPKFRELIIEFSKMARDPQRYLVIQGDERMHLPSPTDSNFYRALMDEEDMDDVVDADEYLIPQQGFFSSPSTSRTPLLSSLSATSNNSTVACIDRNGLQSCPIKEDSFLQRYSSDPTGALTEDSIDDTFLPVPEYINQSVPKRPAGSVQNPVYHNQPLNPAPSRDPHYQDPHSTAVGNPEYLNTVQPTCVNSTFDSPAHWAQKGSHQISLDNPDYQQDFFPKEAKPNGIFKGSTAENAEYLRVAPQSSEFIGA

# input Look up and report measured IC50 for this entry: C[C@H]1CCOc2c(cnn2C)-c2nccc(n2)Nc2cc(c(-c3cn(C)cc3OCC(F)(F)F)cn2)O1
# output < 50 nM

# input Look up and report measured IC50 for this entry: CCOc1nn(C2CC(C)(C)OC(C)(C)C2)cc1-c1cnc2cc1O[C@@H](C)CCOc1c(cnn1C)-c1nccc(n1)N2
# output < 50 nM

# input Look up and report measured IC50 for this entry: COC(=O)c1cc(-c2cnc3cc2O[C@@H](C)CCOc2c(cnn2C)-c2nccc(n2)N3)n(C)c1
# output 100 to 1000 nM
